target: pooled human IgG (human IgG1, 2, 3 and 4)
quantity measured: Enzyme Activity Endpoint Assay: Fab′2 (ng/µL)

protein: PRT-270 (protein) MVTSVWTKGVTPPTDFIYGEDVLHAPYKAGQGWYDITKLFNGKDDLLCGAATAGNMLHWWFDQNKEQIENYLKKHPEKQKINFNGEQMFDVKEAIDTKDSQLDSKLFEYFLEKAFPNLSTKHLGVFPDHVIDMFINGYRLSLLNHGPTPVKRGSKDPRGGIFDAVFTRGDQSKLLTNRHDLKNKTLKEISDLIKQELTEGKALGISHTYANGRINHVINLWGADFDAEGNLEAIAVTDSDSNASIGMKKYFVGVNSSGKVAISAKEIEEDNIGAQVLGLFTLSTGQDIWNQTN
endpoint value: 376
